- STUDY TARGET: Muscarinic acetylcholine receptor M1 (Homo sapiens)
- TEST PROTOCOL: Antagonist activity at human muscarinic M1 receptor
- Format: functional
- CONDITION LABEL: read-out: IC50
Listing: IC50 of selected molecules

MOLECULE | IC50
O=C(C(Cc1ccccc1)c1ccccc1)N1CCCNCC1 (centres undefined) | > 10000 nM
CN1CCN(C(=O)C(Cc2ccccc2)c2ccccc2)C(c2ccccc2)C1 (centres undefined) | > 10000 nM
O=C(C(Cc1ccccc1)c1ccccc1)N1CCNCC1 (centres undefined) | > 10000 nM
COCCN1CCN(C(=O)C(Cc2ccccc2)c2ccccc2)CC1 (centres undefined) | > 10000 nM
CN1CCN(C(=O)[C@@H](Oc2ccccc2)c2ccccc2)CC1 (racemic) | > 10000 nM

Now turn to the next molecule.
-- ask Give IC50; test system Muscarinic acetylcholine receptor M1 (Homo sapiens); molecule CN1CCN(C(=O)C(C)(Cc2ccccc2)c2ccccc2)CC1 (centres undefined)
-- reply > 10000 nM

----------
Listing: log10 IC50 of selected molecules
- STUDY TARGET: UniProtKB P11229
- TEST PROTOCOL: Antagonist activity at human muscarinic M1 receptor
- Format: functional
- CONDITION LABEL: read-out: IC50
// stored as log10 of IC50 expressed in nM

Below, each entry is followed by its recorded log10 IC50 result.
MOLECULE | log10 IC50
CN1CCN(C(=O)C2(c3ccccc3)CC2c2ccccc2)CC1 (stereo not drawn) | 3.40
CC(C)N1CCN(C(=O)C(Cc2ccccc2)c2ccccc2)CC1 (stereo not drawn) | 2.64
CN1CCN(C(=O)C(Cc2cccnc2)c2ccccc2)CC1 (stereo not drawn) | 2.70
CN1CCCN(C(=O)C(Cc2ccccc2)c2ccccc2)CC1 (stereo not drawn) | 2.00
CN(C)CCOC(=O)C(Cc1ccccc1)c1ccccc1 (stereo not drawn) | 2.15
CCN1CCCN(C(=O)C(Cc2ccccc2)c2ccccc2)CC1 (stereo not drawn) | 1.58
CN1CCN(C(=O)[C@](F)(Cc2ccccc2)c2ccccc2)CC1 (mixture of isomers) | 3.38
CN1CCN(C(=O)C(Cc2ccccc2)c2ccccc2)CC1 (racemic) | 1.64

-- ask Given CCN1CCN(C(=O)C(Cc2ccccc2)c2ccccc2)CC1C (stereo not drawn) , respond with its log10 IC50.
-- reply 2.41

----------
- STUDY TARGET: Muscarinic acetylcholine receptor M1 (Homo sapiens, UniProt P11229)
- Sequence (P11229 whole entry): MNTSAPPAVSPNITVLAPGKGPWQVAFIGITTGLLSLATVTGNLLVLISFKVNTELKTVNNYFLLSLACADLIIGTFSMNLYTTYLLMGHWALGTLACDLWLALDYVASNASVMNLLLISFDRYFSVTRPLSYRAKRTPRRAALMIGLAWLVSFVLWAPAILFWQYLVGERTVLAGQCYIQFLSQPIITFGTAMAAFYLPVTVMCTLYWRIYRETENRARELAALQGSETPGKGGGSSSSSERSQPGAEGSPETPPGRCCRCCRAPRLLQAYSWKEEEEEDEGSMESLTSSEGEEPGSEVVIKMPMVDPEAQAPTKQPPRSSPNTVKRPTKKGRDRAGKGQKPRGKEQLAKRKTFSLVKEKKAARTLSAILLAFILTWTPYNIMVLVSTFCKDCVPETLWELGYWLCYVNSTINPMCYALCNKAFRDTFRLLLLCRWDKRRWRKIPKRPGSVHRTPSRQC
- TEST PROTOCOL: Antagonist activity at human muscarinic M1 receptor
- Format: functional
- CONDITION LABEL: read-out: IC50
PARAMETER: pIC50
Just the number, please; pIC50 means minus log10 of the concentration in mol/L.

Below, each entry is followed by its recorded pIC50 result.
MOLECULE | STUDY TARGET | pIC50
CC1CN(C(=O)C(Cc2ccccc2)c2ccccc2)CCN1C (centres undefined) | Muscarinic acetylcholine receptor M1 (Homo sapiens, UniProt P11229) | 7.00
O=C(C(Cc1ccccc1)c1ccccc1)N1CCN2CCCCC2C1 (centres undefined) | Muscarinic acetylcholine receptor M1 (Homo sapiens, UniProt P11229) | 5.70
CN1CCN(C(=O)[C@H](Oc2ccccc2)c2ccccc2)CC1 (mixture of isomers) | Muscarinic acetylcholine receptor M1 (Homo sapiens, UniProt P11229) | 6.62
O=C(C(Cc1ccccc1)c1ccccc1)N1CCC(N2CCCC2)CC1 (centres undefined) | Muscarinic acetylcholine receptor M1 (Homo sapiens, UniProt P11229) | 5.42
CN1CCN(C(=O)/C(=C\c2ccccc2)c2ccccc2)CC1 | Muscarinic acetylcholine receptor M1 (Homo sapiens, UniProt P11229) | 6.74

-- ask Give pIC50; test system Muscarinic acetylcholine receptor M1 (Homo sapiens, UniProt P11229); molecule CCN1CCN(C(=O)C(Cc2ccccc2)c2ccccc2)CC1(C)C (centres undefined)
-- reply 7.05
